Reported Ki on 5-hydroxytryptamine receptor 6 (Homo sapiens) for assorted compounds, compiled from publications.
Sequence (P50406 whole entry): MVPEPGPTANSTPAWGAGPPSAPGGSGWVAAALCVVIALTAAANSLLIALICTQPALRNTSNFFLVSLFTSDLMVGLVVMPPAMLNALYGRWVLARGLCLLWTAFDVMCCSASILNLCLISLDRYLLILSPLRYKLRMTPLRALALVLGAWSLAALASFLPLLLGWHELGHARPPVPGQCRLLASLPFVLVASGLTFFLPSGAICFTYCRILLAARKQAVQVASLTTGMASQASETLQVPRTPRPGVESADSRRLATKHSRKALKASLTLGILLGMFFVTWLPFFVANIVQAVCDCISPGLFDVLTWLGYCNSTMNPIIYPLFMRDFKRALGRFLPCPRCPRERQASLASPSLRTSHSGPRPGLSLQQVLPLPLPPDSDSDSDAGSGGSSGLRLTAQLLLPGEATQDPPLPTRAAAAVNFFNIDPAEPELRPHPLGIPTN
Response body: numeric value in nM, unit text excluded.

O=S(=O)(c1cccc(N2CCNCC2)c1)n1cccc1-c1ccccc1: 1

Dear colleague, please send me the reported Ki for O=S(=O)(c1ccccc1)c1c[nH]c2c(C3CCN(CCc4c[nH]c5ccc(F)cc45)CC3)cccc12 when you can. 25

Dear colleague, please send me the reported Ki for O=S(=O)(c1ccccc1)n1ccc2c(N3CCN(CCc4c[nH]c5ccc(Cl)cc45)CC3)cccc21 when you can. 19

Dear colleague, please send me the reported Ki for COC(=O)C1=C(C)NC(C)=C(C(=O)OCCCN2CCC(c3ccccc3)(c3ccccc3)CC2)[C@H]1c1cccc([N+](=O)[O-])c1 when you can. 878

Dear colleague, please send me the reported Ki for O=S1(=O)c2cccc3cccc(c23)N1CCCN1CCN(c2ccc(F)cc2)CC1 when you can. 5110

Dear colleague, please send me the reported Ki for S=C(NCCCc1c[nH]cn1)NCCCN(Cc1ccc(Cl)c(Cl)c1)c1ccc(Br)cn1 when you can. 1330

Dear colleague, please send me the reported Ki for O=c1[nH]c2c(N3CCN(CCc4c[nH]c5ccc(F)cc45)CC3)cccc2n1Cc1ccccc1 when you can. 116
